System: GlcNAc(b1-3)Gal(b1-4)GlcNAc(b1-3)Gal(b1-4)GlcNAc(b1-3)Gal(b1-4)GlcNAc(b1-3)Gal(b1-4)GlcNAc(b1-2)[GlcNAc(b1-3)Gal(b1-4)GlcNAc(b1-3)Gal(b1-4)GlcNAc(b1-3)Gal(b1-4)GlcNAc(b1-3)Gal(b1-4)GlcNAc(b1-6)]Man(a1-6)[GlcNAc(b1-3)Gal(b1-4)GlcNAc(b1-3)Gal(b1-4)GlcNAc(b1-3)Gal(b1-4)GlcNAc(b1-3)Gal(b1-4)GlcNAc(b1-2)Man(a1-3)]Man(b1-4)GlcNAc(b1-4)[Fuc(a1-6)]GlcNAc
Assay explanation: glycan array binding signal (z-score within array); higher = stronger binding
Condition description: glycan notation: IUPAC condensed, linker removed
About 410 targets per protein were measured; listed, in parts, are those with the strongest signals and a random draw of the rest.
Recorded endpoint: glycan array binding signal (z-score)
Please respond with just the number, no unit label.

A selection of reference data follows.
LSL-150 (Laetiporus sulphureus), Q7Z8V1 (protein) MTDIYIPPEGLYFRLLGFASRQVIFARNSPSPDVGLSPVNDQATDQYFSLIYGTGEHAGLYAIKSKATGKVLFSRRPAEPYVGQIDGDGRYPDNWFKIEPGKTYLSKYFRLVQPSTGTALVSRTHLQPYFWNHPQTEVFDDQYFTFLFEDHHHHHH = 7.09
rCnSL-proB (Clitocybe nebularis) (protein) PTFSPIFALLAFLPFGTLASLLPQTQLVFRINPNLPGPNDVFVGYRGTNNVVGAIYERDGIKDTPMNNGADAELGPGSYITDDLFTAQIFASGSAGNNPGTTATVCKIYADGVQWRGAPKGYLPVLYFGNGQAAEQTRQTYLQGLDIPGTAIRFANLAKTPNQGPTAPRQMVVPSGGLQTLLKASCFPANHAALPQVLSYFNVRAALPPGWNIRTGPEFPNWTN = 0.742

Request: // lookup glycan array binding signal (z-score) for XL-35 (Xenopus laevis) (protein) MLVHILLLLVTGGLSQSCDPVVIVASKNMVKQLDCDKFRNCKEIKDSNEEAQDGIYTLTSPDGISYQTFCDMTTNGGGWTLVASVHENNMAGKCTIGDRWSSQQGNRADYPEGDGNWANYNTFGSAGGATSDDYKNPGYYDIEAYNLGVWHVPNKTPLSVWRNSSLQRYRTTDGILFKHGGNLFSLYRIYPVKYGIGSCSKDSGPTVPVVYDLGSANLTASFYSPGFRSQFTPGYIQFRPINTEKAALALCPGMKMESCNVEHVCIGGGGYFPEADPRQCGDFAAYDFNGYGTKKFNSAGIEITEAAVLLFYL
Result: 0.094

Request: // lookup glycan array binding signal (z-score) for Cohesin-hDCIR (Homo sapiens) (protein) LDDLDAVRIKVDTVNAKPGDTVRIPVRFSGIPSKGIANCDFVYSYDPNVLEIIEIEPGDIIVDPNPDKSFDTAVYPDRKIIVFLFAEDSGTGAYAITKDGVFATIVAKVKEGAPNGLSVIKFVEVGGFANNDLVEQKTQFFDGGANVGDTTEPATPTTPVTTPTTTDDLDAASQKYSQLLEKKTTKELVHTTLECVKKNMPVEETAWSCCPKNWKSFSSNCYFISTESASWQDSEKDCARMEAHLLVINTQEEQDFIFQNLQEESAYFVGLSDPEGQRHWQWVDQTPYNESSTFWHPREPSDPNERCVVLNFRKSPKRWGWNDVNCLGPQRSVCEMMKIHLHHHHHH
Result: -0.597

Request: // lookup glycan array binding signal (z-score) for Jacalin (Artocarpus integrifolia) (protein) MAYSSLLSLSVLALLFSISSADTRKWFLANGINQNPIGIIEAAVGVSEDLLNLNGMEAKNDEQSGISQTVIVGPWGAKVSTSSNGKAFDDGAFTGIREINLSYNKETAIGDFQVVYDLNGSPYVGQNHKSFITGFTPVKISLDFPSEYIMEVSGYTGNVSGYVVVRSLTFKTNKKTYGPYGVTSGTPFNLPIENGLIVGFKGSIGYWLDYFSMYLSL
Result: 5.64

Request: // lookup glycan array binding signal (z-score) for Gal 7 (Homo sapiens) (protein) MSNVPHKSSLPEGIRPGTVLRIRGLVPPNASRFHVNLLCGEEGGSDAALHFNPRLDTSEVVFNSKEGGSWGREERGPGVPFGRGQPFEVLIIASDDGFKAVVGDAQYHHFRHRLPLARVRLVEVGGDVQLDSVRIF
Result: 5.06

Request: // lookup glycan array binding signal (z-score) for Banana lectin (Musa acuminata) (protein) MNGAIKVGAWGGNGGSAFDMGPAYRIISVKIFSGDVVDAVDVTFTYYGKTETRHFGGSGGTPHEIVLQEGEYLVGMKGEFGNYHGVVVVGKLGFSTNKKSYGPFGNTGGTPFSLPIAAGKISGFFGRGGDFIDAIGVYLEP
Result: -0.139

Request: // lookup glycan array binding signal (z-score) for MGL2 (Mus musculus), Q8JZN1 (protein) MTMRYENFQNLEREEKNQEMRNGDKKGGMESPKFALIPSQSFLWRILSWTHLLLFSLGLSLLLLVVISVIGSQNSQLRRDLGTLRAILDNTTSKIKAEFQSLDSRADNFEKGISSLKVDVEDHRQELQAGRDLSQKVTSLESTLEKREQALKTDLSDLTDHVQQLETDLKALTCQLANLKNNGSEVACCPLHWTEHEGSCYWFSESEKSWPEADKYCRLENSHLVVVNSLEEQNFLQNRLANVLSWMGLTDQNGPWRWVDGTDFDKGFKNWRPLQPDNWHGHMLGGGEDCAHFSYDGRWNDDVCQRHYHWICETELGKASSAHSPQLIASVP
Result: -0.062

Request: // lookup glycan array binding signal (z-score) for PNA (Arachis hypogaea), P02872 (protein) MKPFCVFLTFFLLLAASSKKVDSAETVSFNFNSFSEGNPAINFQGDVTVLSNGNIQLTNLNKVNSVGRVLYAMPVRIWSSATGNVASFLTSFSFEMKDIKDYDPADGIIFFIAPEDTQIPAGSIGGGTLGVSDTKGAGHFVGVEFDTYSNSEYNDPPTDHVGIDVNSVDSVKTVPWNSVSGAVVKVTVIYDSSTKTLSVAVTNDNGDITTIAQVVDLKAKLPERVKFGFSASGSLGGRQIHLIRSWSFTSTLITTTRRSIDNNEKKIMNMASA
Result: 1.96

Request: // lookup glycan array binding signal (z-score) for Erv46-EDTA (Saccharomyces cerevisiae), P39727 (protein) MKFLVNVALVFMVVYISYIYAAAPEHHHHHHDYDIPTTENLYFQGAMDSVVTRPQLVVDRDRHAKLELNMDVTFPSMPCDLVNLDIMDDSGEMQLDILDAGFTMSRLNSEGRPVGDATELHVGGNGDGTAPVNNDPNYCGPCYGAKDQSQNENLAQEEKVCCQDCDAVRSAYLEAGWAFFDGKNIEQCEREGYVSKINEHLNEGCRIKGSAQINRIQGNLHFAPGKPYQNAYGHFHDTSLYDKTSNLNFNHIINHLSFGKPIQSHSKLLGNDKRHGGAVVATSPLDGRQVFPDRNTHFHQFSYFAKIVPTRYEYLDNVVIETAQFSATFHSRPLAGGRDKDHPNTLHVRGGIPGMFVFFEMSPLKVINKEQ
Result: 0.589

Request: // lookup glycan array binding signal (z-score) for DBA (Dolichos biflorus) (protein) ANIQSFSFKNFNSPSFILQGDATVSSGKLQLTKVKENGFPLRFPSGRAFYSSPIQIYDKFTGAVASWATSFTVKISAPSKASFADGIAFALVPVGSEPRRNGGYLGVFDSDVYNNSAQTVAVEFDTLSNSGWDPSMKHIGIDVNSIKSIATVSWDLANGENAEILITYNAATSLLVVSLVHPSRRTSYILSERVDITNELPEYVGVGFSATTGLSEGYIETHDVLSWSFASRLPDDSTAEPLDLARYLVRNVL
Result: -0.1
